STUDY_SYSTEM: Corticotropin-releasing factor receptor 2/Corticotropin-releasing factor-binding protein (Homo sapiens, UniProt P24387+Q13324)
Sequence (Q13324 whole entry): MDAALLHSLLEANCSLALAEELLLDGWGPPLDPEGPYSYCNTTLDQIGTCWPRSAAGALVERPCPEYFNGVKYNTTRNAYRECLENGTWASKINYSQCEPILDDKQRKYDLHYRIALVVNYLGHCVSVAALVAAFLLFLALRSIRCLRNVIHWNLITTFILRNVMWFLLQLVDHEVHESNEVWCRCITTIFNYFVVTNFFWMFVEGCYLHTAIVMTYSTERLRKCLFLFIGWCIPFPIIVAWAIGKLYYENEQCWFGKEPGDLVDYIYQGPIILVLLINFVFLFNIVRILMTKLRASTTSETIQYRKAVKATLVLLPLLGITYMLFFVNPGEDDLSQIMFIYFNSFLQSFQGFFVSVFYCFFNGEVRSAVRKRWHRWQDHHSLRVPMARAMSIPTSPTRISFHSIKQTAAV
Sequence (P24387 whole entry): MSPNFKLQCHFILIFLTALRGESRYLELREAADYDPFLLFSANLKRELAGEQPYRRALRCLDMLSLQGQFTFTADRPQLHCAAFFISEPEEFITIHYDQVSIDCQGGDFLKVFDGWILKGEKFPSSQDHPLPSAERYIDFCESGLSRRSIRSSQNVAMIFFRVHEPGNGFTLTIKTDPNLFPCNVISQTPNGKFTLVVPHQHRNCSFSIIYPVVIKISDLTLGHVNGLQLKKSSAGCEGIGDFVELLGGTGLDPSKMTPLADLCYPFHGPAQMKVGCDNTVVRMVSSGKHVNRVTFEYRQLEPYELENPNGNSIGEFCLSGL
ASSAY_EXPLANATION: activators of CRF receptor 2 with binding protein – uHTS hits, confirmation (AID 602473)
Type: functional
EXPERIMENTAL_CONDITIONS: read-out: EC50_Mean
Calls of active or inactive are those of the source. Rule as the data show it: actives have a measured EC50 and inactives only a lower limit.
Returns: one label drawn from t (active), f (inactive)

Before answering, review these 5 worked examples.
CC(=O)N1CCN(S(=O)(=O)c2cccc(C(=O)NCc3ccc(F)cc3)c2)CC1
f
COc1ccc(/C=N/NS(=O)(=O)c2ccccc2)cc1OC(=O)c1ccc(C)cc1
f
CC(O)CN(CC(C)O)c1ccc2c(c1)Cc1cc([N+](=O)[O-])ccc1-2 (configuration not stated)
t
Cc1cccc2cc(/C=N/NC(=O)c3ccccc3O)c(Cl)nc12
f
OC(CN1C2=NCCN2c2ccccc21)c1ccc2c(c1)OCO2 (configuration not stated)
f

Q. For this compound, state the assay outcome: CCN(CC)CCN/C(C)=C1\C(=O)NC(=O)N(c2ccccc2OC)C1=O
A. f

Q. For this compound, state the assay outcome: CCN(CC)C(=S)Sc1c(-c2ccccc2)c2cc(Cl)ccc2[nH]c1=O
A. f
